Reported pIC50 is given for each of the following compounds.
Test system: splicing of Ad2.2 pre-mRNA substrate
Test: In vitro splicing (IVS) assay, Ad2.2 substrate, HeLa S3 nuclear extracts, RT-qPCR
Type: biochemical, human
Conditions: Ad2.2 (weak) substrate
Hey, just a heads up that pIC50 is the negative log base 10 of the concentration in molar.

Some compounds with known pIC50 results, for comparison:
>  <compound>
CCC(O)C(C)C1OC1CC(C)(O)C=CC=C(C)C1OC(=O)CC(O)CCC(C)(O)C(O)C=CC1C (stereo not drawn) [Plad F]

>  <pIC50>
6.77

$$$$
>  <compound>
CCC(O)C(C)C1OC1CC(C)(O)C=CC=C(C)C1OC(=O)CC(O)CCC(C)(O)C(OC(=O)N2CCN(C3CCCCCC3)CC2)C=CC1C (stereo not drawn) [Compound E7107]

>  <pIC50>
8.00

$$$$

Incoming: Entry C/C(=C\CO)[C@H]1OC(=O)C[C@H](O)CC[C@@](C)(O)[C@@H](OC(=O)N2CCN(C3CCCCCC3)CC2)/C=C/[C@@H]1C [Compound 5] needs its pIC50 filled in; supply it.
Outgoing: 4.80

Incoming: Respond only with pIC50 recorded for CCC(O)C(C)C1OC1CC(C)(O)C=CC=C(C)C1OC(=O)CC(OC(=O)C2CC2)CCC(C)(O)C(OC(=O)N2CCN(C3CCCCCC3)CC2)C=CC1C (stereo not drawn) [Compound 3]
Outgoing: 6.02

Incoming: Find the measured pIC50 of C/C(=C\C=C\[C@@H](C)c1ccccn1)[C@H]1OC(=O)C[C@H](O)CC[C@@](C)(O)[C@@H](OC(=O)N2CCN(C3CCCCCC3)CC2)/C=C/[C@@H]1C [Compound 6] and report it.
Outgoing: 7.64
